Give cell viability for every item shown.
Tested on: U2OS
assay: cell viability relative to DMSO; higher = less toxic
stated conditions: 72 h; 10 nM
One number for each entry, in %.

[
  {
    "sample smiles": "C[C@]1(O)C[C@@H](c2nc(-c3ccc4ccc(-c5ccccc5)nc4c3)c3c(N)nccn32)C1",
    "value": 103
  },
  {
    "sample smiles": "Cc1cc([N+](=O)[O-])ccc1NS(=O)(=O)c1cc(Cl)ccc1Cl",
    "value": 97.6
  },
  {
    "sample smiles": "CC(C)(C)n1nc(-c2ccc(Cl)cc2)c2c(N)ncnc21",
    "value": 98.4
  }
]

# context switch: different compound, same cell viability
Recorded cell viability (compound CCN(CC)CCO[C@H]1CC[C@@]2(C)C(=CC[C@@H]3[C@@H]2CC[C@]2(C)C(=O)CC[C@@H]32)C1 ): 98.4
